# Test system: myeloid leukemia patient primary cells Pat.11
# protocol-text: cell viability (% survival relative to DMSO control); higher = less cytotoxic
# measurement-conditions: 1000 nM; 72 h
Please go through the items and note down their cell viability.
Give bare numbers, in %.

molecule | cell viability [%]
C[C@H](NC(=O)c1sccc1OCc1ccc(Cl)cc1)c1ccccc1 | 97.6

Pending molecule:
Prompt: Any idea what cell viability was measured for C=C(C=NNC(=N)N)NNC(=N)N [Mitoguazone] ?
Completion: 98.6

----------
For each of the molecules below, state its cell viability.
# System: HL-60
# protocol-text: cell viability (% survival relative to DMSO control); higher = less cytotoxic
# measurement-conditions: 0.1 µM; 72 h; co-treatment: AZD3965 100 nM
Give bare numbers, in %.

Past entries and their recorded results:
record-smiles | tested-on | value-measured
CCCCCCCCCCC[C@@H](C[C@@H]1OC(=O)[C@H]1CCCCCC)OC(=O)[C@H](CC(C)C)NC=O | HL-60 | 102
CC(C)c1nc(CN(C)C(=O)N[C@H](C(=O)N[C@@H](Cc2ccccc2)C[C@H](O)[C@H](Cc2ccccc2)NC(=O)OCc2cncs2)C(C)C)cs1 | HL-60 | 78.3

Next:
Prompt: Give its cell viability value. Item: O=C(O)C1=CC(=C(c2ccc(O)c(C(=O)O)c2)c2ccc(O)c(C(=O)O)c2)C=CC1=O
Completion: 101

These data points were gathered from the supplement of paper PMC8671470.
